test_details: Aqueous solubility of compound in phosphate buffer at pH 9.0 by HPLC analysis
Type: physicochemical
property: solubility (µM)

compound_structure_string=O=C(Cc1ccc(-c2cnc(OCc3ccc(C(F)(F)F)cc3)cn2)cc1)N1CCC[C@H]1CO property=solubility unit_label=µM reported=60.4
compound_structure_string=O=C(Cc1ccc(-c2ccc(OCc3ccc(Cl)c(Cl)c3)nc2)cc1)N1CCC[C@H]1CO property=solubility unit_label=µM reported=46.9
compound_structure_string=O=C(Cc1ccc(-c2ccc(OCc3ccc(Cl)c(Cl)c3)nc2)cc1)N1CCC(O)CC1 property=solubility unit_label=µM reported=59.6

----------
measurement_target: Sphingosine kinase 2 (Homo sapiens)
Sequence (Q9NRA0 whole entry): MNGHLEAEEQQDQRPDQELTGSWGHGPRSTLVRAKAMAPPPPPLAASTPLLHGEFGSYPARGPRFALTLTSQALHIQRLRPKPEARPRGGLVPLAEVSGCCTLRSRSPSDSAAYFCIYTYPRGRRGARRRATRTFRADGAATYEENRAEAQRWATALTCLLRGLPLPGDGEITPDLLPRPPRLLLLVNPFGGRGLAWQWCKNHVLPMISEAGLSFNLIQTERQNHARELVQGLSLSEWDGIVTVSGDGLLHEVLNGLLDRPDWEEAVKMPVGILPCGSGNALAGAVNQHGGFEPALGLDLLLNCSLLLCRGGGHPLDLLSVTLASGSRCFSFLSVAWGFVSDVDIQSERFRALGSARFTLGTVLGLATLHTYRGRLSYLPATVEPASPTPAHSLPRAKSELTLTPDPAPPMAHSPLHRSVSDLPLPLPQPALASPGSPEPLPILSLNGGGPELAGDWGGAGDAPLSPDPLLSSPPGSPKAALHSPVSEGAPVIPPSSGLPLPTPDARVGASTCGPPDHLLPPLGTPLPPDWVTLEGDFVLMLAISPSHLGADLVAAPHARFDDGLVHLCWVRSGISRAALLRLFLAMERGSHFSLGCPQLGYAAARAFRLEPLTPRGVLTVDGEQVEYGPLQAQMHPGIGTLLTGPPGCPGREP
test_details: Inhibition of SphK2 (unknown origin)
property: IC50

Ask: Name the recorded IC50 of CS(=O)(=O)c1ccc(-c2sc(NS(=O)(=O)c3ccc(Br)cc3)nc2-c2ccccc2)cc1 , assay system Sphingosine kinase 2 (Homo sapiens).
Result: > 10 µM

----------
test_details: Cytotoxicity against mouse NIH3T3 cells assessed as reduction in cell proliferation incubated for 48 hrs by CCK-8 assay
Format: toxicity, cell-based
property: IC50 at 48 h

Below, 8 molecules whose answers are already recorded.
molecule=O=C(Cc1ccc(-c2ccc(OCc3ccc(Cl)cc3)nc2)cc1)N1CCC[C@H]1CO property="IC50 at 48 h" reported="> 100 µM"
molecule="O=C(NCc1ccncc1)C12CC3CC(C1)CC(c1ccc(Cl)cc1)(C3)C2 [ABC-294640]" property="IC50 at 48 h" reported="> 100 µM"
molecule=O=C(Cc1ccc(-c2ccc(OCc3ccc(Cl)c(Cl)c3)nc2)cc1)N1CCC[C@H]1CO property="IC50 at 48 h" reported="> 100 µM"
molecule=NC(=O)[C@@H]1CCCN1C(=O)Cc1ccc(-c2ccc(OCc3ccccc3)nc2)cc1 property="IC50 at 48 h" reported="> 100 µM"
molecule=NC(=O)[C@@H]1CCCN1C(=O)Cc1ccc(-c2ccc(OCc3ccc(Cl)cc3)nc2)cc1 property="IC50 at 48 h" reported="> 100 µM"
molecule=O=C(Cc1ccc(-c2cnc(OCc3ccc(Cl)cc3)cn2)cc1)N1CCC[C@H]1CO property="IC50 at 48 h" reported="> 100 µM"
molecule=O=C(Cc1ccc(-c2ccc(OCc3ccc(Cl)c(Cl)c3)nc2)cc1)N1CCC(O)CC1 property="IC50 at 48 h" reported="> 100 µM"
molecule=O=C(Cc1ccc(-c2cnc(OCc3ccc(C(F)(F)F)cc3)cn2)cc1)N1CCC[C@H]1CO property="IC50 at 48 h" reported="> 100 µM"

Please look at the following molecule next.
Ask: Answer with reported IC50 at 48 h of NC(=O)[C@@H]1CCCN1C(=O)Cc1ccc(-c2ccc(OCc3ccc(Cl)c(Cl)c3)nc2)cc1
Result: > 100 µM

----------
test_details: Aqueous solubility of compound in phosphate buffer at pH 2.0 by HPLC analysis
Type: physicochemical
property: solubility (µM)

P. O=C(Cc1ccc(-c2ccc(OCc3ccc(Cl)c(Cl)c3)nc2)cc1)N1CCC[C@H]1CO
Q. O=C(Cc1ccc(-c2cnc(OCc3ccc(C(F)(F)F)cc3)cn2)cc1)N1CCC[C@H]1CO
R. O=C(Cc1ccc(-c2ccc(OCc3ccc(Cl)c(Cl)c3)nc2)cc1)N1CCC(O)CC1
Ask: Ascending by solubility, please. Order the labels as requested and list them.
Result: P, R, Q

The reported measurements were obtained from ChEMBL document CHEMBL6127008.
